Measurement Protocol: Toxicity liver stage against HepG2, at 10uM
Format: cell-based
Design: test concentration 10 uM, cell line HepG2-A16-CD81EGFP
Conditions Used: human, HepG2-A16-CD81EGFP cells; read-out: INHIBITION
Measured Metric: cytotoxicity at 10 µM (%)
The answer is to be given in %; state only the numeric part.

Some compounds with known cytotoxicity at 10 µM results, for comparison:
[
  {
    "Compound": "COCC(=O)N1CC[C@H]2C[C@@H](c3nnc(C4CC4)o3)O[C@@H]2C1",
    "Measurement Unit": "%",
    "cytotoxicity at 10 µM": -6.77
  },
  {
    "Compound": "CN(C(=O)CCC(F)(F)F)c1cccc2ncccc12",
    "Measurement Unit": "%",
    "cytotoxicity at 10 µM": 1.9
  },
  {
    "Compound": "Cc1cc(C)c2c(N3CCN(CCN4CCOCC4)CC3)ncnc2n1",
    "Measurement Unit": "%",
    "cytotoxicity at 10 µM": 3.04
  },
  {
    "Compound": "Cc1ccc(-c2c(C(=O)NC3CCN(C)CC3)csc2C)cc1",
    "Measurement Unit": "%",
    "cytotoxicity at 10 µM": -130
  },
  {
    "Compound": "O=C(NCC1CCCCC1)c1nnn(-c2ccc(Br)cc2)n1",
    "Measurement Unit": "%",
    "cytotoxicity at 10 µM": -0.895
  }
]

Moving on to the next compound.
Req: Endpoint output: cytotoxicity at 10 µM of COCCC1(C(=O)O)CCCN(Cc2ccccc2OCCO)C1 (stereo unspecified) . Value?
Resp: -40.9

====

Measurement Protocol: Toxicity liver stage against HepG2, at 10uM
Type: cell-based
Set-up: test concentration 10 uM, cell line HepG2-A16-CD81EGFP
Conditions Used: human, HepG2-A16-CD81EGFP cells; read-out: INHIBITION
cytotoxicity at 10 µM: recorded values
The answer is to be given in %; state only the numeric part.

[
  {
    "Compound": "COCCC(=O)N1CCCC2(CCC(=O)N(CCc3c[nH]cn3)C2)C1 (stereo not given)",
    "Measurement Unit": "%",
    "cytotoxicity at 10 µM": -3.76
  }
]

Moving on to the next compound.
Req: Endpoint output: cytotoxicity at 10 µM of Nc1nc2c(c(=O)[nH]1)CCN(C(=O)c1ccccc1N1CCCC1)C2 . Value?
Resp: 1.79

====

cytotoxicity at 10 µM: recorded values
Measurement Protocol: Toxicity liver stage against HepG2, at 10uM
Type: cell-based
Parameters: test concentration 10 uM, cell line HepG2-A16-CD81EGFP
Conditions Used: human, HepG2-A16-CD81EGFP cells; read-out: INHIBITION

Some compounds with known cytotoxicity at 10 µM results, for comparison:
[
  {
    "Compound": "Cc1cccc(C2CCCCN2C(=O)CCCS(C)(=O)=O)c1C (stereo unspecified)",
    "Measured Metric": "cytotoxicity at 10 µM",
    "Recorded Measurement": "4.96%"
  },
  {
    "Compound": "CCN(C)c1ncnc2c1CCN(C(=O)N1CCCC1)CC2",
    "Measured Metric": "cytotoxicity at 10 µM",
    "Recorded Measurement": "-6.9%"
  },
  {
    "Compound": "Cc1nccn1[C@@H]1CC[C@@H](N(C)S(=O)(=O)c2ccccc2F)[C@H]1O",
    "Measured Metric": "cytotoxicity at 10 µM",
    "Recorded Measurement": "1.17%"
  }
]

Req: Endpoint output: cytotoxicity at 10 µM of O=C(Cc1cccs1)NCc1ccnc(OC2CCOCC2)c1 . Value?
Resp: -1.22%

Req: Endpoint output: cytotoxicity at 10 µM of O=C(c1cnccn1)N1CCC2(CC1)C(=O)NCC2c1ccccc1 (stereo unspecified) . Value?
Resp: -3.68%

Req: Endpoint output: cytotoxicity at 10 µM of CCCN1CCC(NC(=O)c2ccc(F)cc2I)CC1 . Value?
Resp: -11.8%

Req: Endpoint output: cytotoxicity at 10 µM of CCN(CC)S(=O)(=O)c1ccc(CNC(=O)N2CCCCCC2)cc1 . Value?
Resp: -2.9%

Req: Endpoint output: cytotoxicity at 10 µM of CCS(=O)(=O)N1CCc2nc(N3CCOCC3)nc(N(C)C)c2CC1 . Value?
Resp: 21.3%

Req: Endpoint output: cytotoxicity at 10 µM of Cc1cnn(-c2ccc(S(=O)(=O)N(C)CC(F)F)cc2F)c1 . Value?
Resp: 9.75%

Req: Endpoint output: cytotoxicity at 10 µM of CN(CC1CCCC1)C(=O)c1cn(C)nc1-c1cccnc1 . Value?
Resp: -0.0402%

Req: Endpoint output: cytotoxicity at 10 µM of Cc1noc(C)c1C(=O)N1CCCC(c2c(C)c(=O)nc3n2CCC3)C1 (stereo unspecified) . Value?
Resp: -21.1%

====

Measurement Protocol: Toxicity liver stage against HepG2, at 10uM
Assay type: cell-based
Set-up: test concentration 10 uM, cell line HepG2-A16-CD81EGFP
Conditions Used: human, HepG2-A16-CD81EGFP cells; read-out: INHIBITION
Measured Metric: cytotoxicity at 10 µM (%)
The answer is to be given in %; state only the numeric part.

Some compounds with known cytotoxicity at 10 µM results, for comparison:
[
  {
    "Compound": "Cc1nc2c(c(NC3CC3)n1)CCN(C(=O)C1(C#N)CC1)CC2",
    "Measurement Unit": "%",
    "cytotoxicity at 10 µM": -104
  },
  {
    "Compound": "Cn1cc(C2=NOC(C(=O)NC3(c4ccccc4)CCCC3)C2)cn1 (stereo not given)",
    "Measurement Unit": "%",
    "cytotoxicity at 10 µM": -0.34
  },
  {
    "Compound": "CSc1ccc(-n2ccnc2-c2cc3n(n2)CCNC3)cc1",
    "Measurement Unit": "%",
    "cytotoxicity at 10 µM": -9.94
  },
  {
    "Compound": "Cc1nn(C)c2nc(N(Cc3ccncc3)CC3CCCO3)sc12 (stereo not given)",
    "Measurement Unit": "%",
    "cytotoxicity at 10 µM": 9.42
  },
  {
    "Compound": "Cc1cccc(N2CCN(C(=O)CC3(O)CCCC3)C(C)C2)n1 (stereo not given)",
    "Measurement Unit": "%",
    "cytotoxicity at 10 µM": 15.9
  },
  {
    "Compound": "CCN(CC1CCOC1)S(=O)(=O)Cc1ccccc1Cl (stereo not given)",
    "Measurement Unit": "%",
    "cytotoxicity at 10 µM": -0.768
  },
  {
    "Compound": "O=C(Nc1ccccc1)C1=NOC2(CCCN(C(=O)C3CCCC3)C2)C1 (stereo not given)",
    "Measurement Unit": "%",
    "cytotoxicity at 10 µM": 4.88
  },
  {
    "Compound": "CN(CCc1ccccn1)C(=O)Nc1cccnc1N1CCCC1",
    "Measurement Unit": "%",
    "cytotoxicity at 10 µM": -27.2
  }
]

Req: Endpoint output: cytotoxicity at 10 µM of O=C(NC1CCC1)C1CCC2(CN(C(=O)c3ccco3)C2)O1 (stereo not given) . Value?
Resp: -144

Req: Endpoint output: cytotoxicity at 10 µM of O=C(O)c1cc(C=Cc2ccc3ccccc3c2)ncn1 . Value?
Resp: -13.6

====

cytotoxicity at 10 µM: recorded values
Measurement Protocol: Toxicity liver stage against HepG2, at 10uM
Type: cell-based
Set-up: test concentration 10 uM, cell line HepG2-A16-CD81EGFP
Conditions Used: human, HepG2-A16-CD81EGFP cells; read-out: INHIBITION
The answer is to be given in %; state only the numeric part.

Some compounds with known cytotoxicity at 10 µM results, for comparison:
[
  {
    "Compound": "CN(C)C(=O)NCc1nnc2n1CCN(Cc1ccsc1)C2",
    "Recorded Measurement": 8.31
  },
  {
    "Compound": "CN(CC(=O)Nc1cccnc1)CC1CCCN1c1cccnn1 (stereo not given)",
    "Recorded Measurement": 2.66
  },
  {
    "Compound": "CS(=O)(=O)NCC1CCCN(C(=O)Nc2ccccc2N2CCCC2)C1 (stereo not given)",
    "Recorded Measurement": -139
  },
  {
    "Compound": "O=C1CCC(=O)N1CCN1CCOC(c2ccsc2)C1 (stereo not given)",
    "Recorded Measurement": 7.55
  },
  {
    "Compound": "CN(Cc1cnn(C)c1)C(=O)c1ccc(=O)n(Cc2ccccc2)n1",
    "Recorded Measurement": -134
  }
]

Req: Endpoint output: cytotoxicity at 10 µM of CCn1cnnc1CNC(=O)N(C)Cc1cccc(OC(F)F)c1 . Value?
Resp: -3.73

Req: Endpoint output: cytotoxicity at 10 µM of Fc1cccc(-n2cccn2)c1NCc1nnc(C2CC2)o1 . Value?
Resp: -5.48

Req: Endpoint output: cytotoxicity at 10 µM of Cc1cccc(CN2CCCC23CCNC3)n1 (stereo not given) . Value?
Resp: 4.82

Req: Endpoint output: cytotoxicity at 10 µM of CC(NC(=O)NCCCO)c1ccc(-c2ccncc2)cc1 (stereo not given) . Value?
Resp: 6.93

Req: Endpoint output: cytotoxicity at 10 µM of CCc1nc(C2CCCN2C(=O)c2cc(C3CC3)[nH]n2)no1 (stereo not given) . Value?
Resp: 1.03

Req: Endpoint output: cytotoxicity at 10 µM of O=C(NCCCn1cncn1)N1CCC(N2CCCCC2)CC1 . Value?
Resp: -7.01

Req: Endpoint output: cytotoxicity at 10 µM of O=C(NCC1CCC2(CCNCC2)CO1)c1cnccn1 (stereo not given) . Value?
Resp: 9.51

Req: Endpoint output: cytotoxicity at 10 µM of CCc1noc(CN2CCN(C(=O)N(C)C)CC2)n1 . Value?
Resp: -4.97

Req: Endpoint output: cytotoxicity at 10 µM of COCC1CN(Cc2csc(C)n2)Cc2nccn2C1 (stereo not given) . Value?
Resp: 3.16

Req: Endpoint output: cytotoxicity at 10 µM of COCC(C)NC(=O)Nc1cc(-c2ccccc2C)nn1CCO (stereo not given) . Value?
Resp: -14.3
